Molecular target: S. pneumoniae Topoisomerase IV ATPase (ParE) (Streptococcus pneumoniae serotype 4, UniProt Q59961)
Sequence (Q59961 whole entry): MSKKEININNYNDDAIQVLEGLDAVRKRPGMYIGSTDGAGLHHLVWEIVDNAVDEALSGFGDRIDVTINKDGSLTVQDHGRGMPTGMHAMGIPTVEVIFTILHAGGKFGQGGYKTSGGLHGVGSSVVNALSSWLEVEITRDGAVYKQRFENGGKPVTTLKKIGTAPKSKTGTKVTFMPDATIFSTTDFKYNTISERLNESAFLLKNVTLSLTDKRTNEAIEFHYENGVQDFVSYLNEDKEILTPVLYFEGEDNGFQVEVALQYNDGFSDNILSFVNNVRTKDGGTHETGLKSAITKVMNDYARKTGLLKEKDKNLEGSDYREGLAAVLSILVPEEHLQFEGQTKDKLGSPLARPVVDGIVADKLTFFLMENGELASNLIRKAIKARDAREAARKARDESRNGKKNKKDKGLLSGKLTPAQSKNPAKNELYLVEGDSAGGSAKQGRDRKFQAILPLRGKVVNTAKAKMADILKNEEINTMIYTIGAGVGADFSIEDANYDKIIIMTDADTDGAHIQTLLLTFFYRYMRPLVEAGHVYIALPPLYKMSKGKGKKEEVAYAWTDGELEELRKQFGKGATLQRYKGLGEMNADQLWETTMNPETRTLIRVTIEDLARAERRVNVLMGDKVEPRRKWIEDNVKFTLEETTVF
Assay: S. pneumoniae Topoisomerase IV ATPase inhibition
Format: biochemical
Settings: values marked * are an average of two or more data points, read-out: % Inh (13 μM) of S. pneumoniae Topoisomerase IV ATPase
Listed here: items and their measured inhibition at 13 µM.
Write the value in % as a bare number.

These solved cases illustrate the format of a correct answer.
> print(dat)
                                        smi        quantity.name  units.label  observed.value
1  O=C(O)c1coc2ccc(-c3cnc(Nc4ccc(F)c(Cl)c4)nc3N3CCOCC3)cc2c1=O  inhibition at 13 µM            %             100
2  O=C(O)/C=C/c1cccc(-c2cnc(Nc3ccc(F)c(Cl)c3)nc2NCCc2c[nH]cn2)c1  inhibition at 13 µM            %            87.8
3  COc1ncc(-c2cnc(Nc3cc(C)cc(Cl)c3)nc2-n2ccc(C(F)(F)F)n2)cc1C(=O)NS(C)(=O)=O  inhibition at 13 µM            %              99
4  CCOC(=O)c1cncc(-c2cnc(Nc3ccc(F)c(Cl)c3)nc2N2CCC(C(=O)NC)CC2)c1  inhibition at 13 µM            %            73.9
5  COc1cc(Nc2ncc(-c3cnc(OC)c(C(=O)NS(=O)(=O)C4=CCS(=O)(=O)C4)c3)c(-n3nc(C(F)(F)F)cc3C)n2)cc(OC)c1  inhibition at 13 µM            %              99
6  CC(C)(C)OC(=O)NCCCNc1nc(Nc2ccc(F)c(Cl)c2)ncc1-c1cncnc1  inhibition at 13 µM            %             103
7  O=C(O)c1cncc(-c2cnc(Nc3ccc(F)c(Cl)c3)nc2-n2cc(-c3ccccn3)cn2)c1  inhibition at 13 µM            %             100
8  COc1ncc(-c2cnc(Nc3cc(C)cc(C)c3)nc2-n2ccc(C(F)(F)F)n2)cc1C(=O)NS(=O)(=O)CCCN1CCOCC1  inhibition at 13 µM            %             100

Query string: So what's the measured inhibition at 13 µM for this one? `O=C(O)c1cncc(-c2cnc(Nc3ccc(F)c(Cl)c3)nc2NCCOc2ccccc2)c1`
Result string: 85.1

Query string: I would be grateful if you could share the reported inhibition at 13 µM for `CCCS(=O)(=O)NC(=O)c1cc(-c2cnc(Nc3cc(C)cc(C)c3)nc2-n2ccc(C(F)(F)F)n2)cnc1OC` .
Result string: 100

Query string: Recorded inhibition at 13 µM for `Fc1ccc(Nc2ncc(-c3cncnc3)c(N3CCOCC3)n2)cc1Cl` , please?
Result string: 79.3

Query string: State the recorded inhibition at 13 µM for this entry: `COc1cc(F)cc(Nc2ncc(-c3cnc(OC)c(C(=O)O)c3)c(-n3nc(C(F)(F)F)cc3C)n2)c1`
Result string: 100

Query string: // returns reported inhibition at 13 µM for input `CCNC(=O)c1cccc(-c2cnc(Nc3ccc(F)c(Cl)c3)nc2NCCCN(C)C)c1`
Result string: 94.8

Query string: Entry `COc1cc(CNc2nc(Nc3ccc(F)c(Cl)c3)ncc2-c2cnc(OC)nc2)cc(OC)c1` : reported inhibition at 13 µM = ?
Result string: 36

Query string: Looking for the measured inhibition at 13 µM of `CS(=O)(=O)NC(=O)c1cncc(-c2cnc(Nc3ccc(F)c(Cl)c3)nc2-n2ccc(C(F)(F)F)n2)c1` , can you help?
Result string: 100

Query string: I am curious: what inhibition at 13 µM value has been reported for `Cc1ccc(F)c(Nc2ncc(-c3cncc(C(=O)O)c3)c(-n3nc(C(F)(F)F)cc3C)n2)c1` ?
Result string: 55

Query string: What value of inhibition at 13 µM has been recorded for this entry: `COc1ncc(-c2cnc(Nc3ccc(F)c(Cl)c3)nc2-n2ccc(C(F)(F)F)n2)cc1C(=O)NS(C)(=O)=O`
Result string: 100

Query string: Item under review: `Fc1ccc(Nc2ncc(-c3cncnc3)c(-n3cnc(C(F)(F)F)c3)n2)cc1Cl` . Reported inhibition at 13 µM?
Result string: 79.6
